Tested on: SARS-CoV-2 Omicron
Type: cell-based
REPORTED METRIC: EC50 (nM)
Give just the numeric value; nM need not be written.

Form: molecule = `CCC(CC)COC(=O)[C@H](C)N[P@](=O)(OC[C@H]1O[C@@](C#N)(c2ccc3c(N)ncnn23)[C@H](O)[C@@H]1O)Oc1ccccc1` ; EC50 = 1500
